assay: yeast display, Sf9 membrane polyspecificity reagent, FACS + sequencing; frameworks hold sequencing errors
MEASURE: polyreactivity (PSR sort gate)

QVQLVESGGGLVQAGGSLRLSCAASGRIFGGYAMGWYRQAPGKEREFVAAITTSGGSTYYADSVKGRFTISRDNAKNTVYFQMNSLKPEDTAVYYCAARGYIPARFVSLVYRYYYWGQGTQVTVSS : high polyreactivity
QVQLVESGGGLVQAGGSLRLSCAASGRTFAVNAMGWYRQAPGKESELVAAISQRAGRTYYADSVKGRFTISRDNAKNTVYLQMNSLKPEDTAVYYCNVVGFRSRVGSRGYWGQGTQVTVSS : high polyreactivity

----------
assay: yeast display, Sf9 membrane polyspecificity reagent, FACS + sequencing; frameworks hold sequencing errors
MEASURE: polyreactivity (PSR sort gate)

Previously resolved entries follow.
QVQLVESGGGLVQAGGSLRLSCAASGSTFYTNAMGWYRQAPGKERELVAVITSSGVRTYYADSVKGRFTISRDNAKKTVYFQMNSLKPEDTAVYYCAAEARVGDHFQILDYWGQGTQVTVSS : high polyreactivity
QVQLVESGGGLVQAGGSLRLSCAASGSIFGNYVMGWYRQSPGKERELVAAISWSGGTNYADSVKGRFTISRDNAKNTVYLQMNSLKPEDTAVYYCATVIRGHKRFAYGYWGQGTQVTVSS : high polyreactivity
QVQLVESGGGLVQAGGSLRLSCAASRRIYYWYVMGWYRQAPGKERELVASISWSGGSTYYADSVKGRFTISRDNAKNTVYLQMNSLKPEDTAVYYCNAGSVYTVSLPGHPYDYWGQGTQVTVSS : low polyreactivity
QVQLVESVGGLVQAGGSLRLSCAASGRTFLRYAMGWYRQAPGKERELVAAISWSGGRTYYADSVKGRFTISRDNAKNTVYLQMNSLKPEDTAVYYCNKVVLYGAHYYYWGQGTQVTVSS : high polyreactivity
QVQLVESGGGLVQAGGSLRLSCAASGSTFLDNAMGWFRQAPGKERELVAAITSGDSTKYADSVKGRFTISRDNEKNTVYLQMNSLKPEDTAVYYCAADVGRNKMDYWGQGTQVTVSS : low polyreactivity
QVQLVESGGGLVQAGGSLRLSCAASGFIFSYYAMGWYRQAPGKEREWVAAISKTGGNTYYADSVKGRFTISRDNAKKTVYLQMNSLKPEDTAVYYCNALRGDWRDMGYCGQGTQVTVSS : high polyreactivity
QFQLEESGGGLVQAGGSLRLSCAASGSTFSSYVMGWYRQAPGKERELVAAISSIGGSTYYADSVKGRFTISRDNAKNTVYLQMNSLKPEDTAVYYCAAEPPGSTYEGGYLGQGTQVTVSS : low polyreactivity
QVQLVESGGGLVQAGGSLRLSCAASGSIFAGYAMGWYRQAPGKERELVAAISKSAGSTYYADSVKGRFTISRDNAKNTVYLQMNSLKPEDTAVYYCAARTFNTYPRYYYWGQGTQVTVSS : high polyreactivity

Using the record for `QVQLVESGGGLVQAGGSLRLSCAASGFIFKRYAMGWYRQAPGKERELVAAITLSGGDTYYADSVKGRFTISRDNAKNTVYLQMNSLKPEDTAVYYCNAPYIGENYYWGQGTQVTVSS` , report its polyreactivity (PSR sort gate). high polyreactivity

What do you get for `QVQLVESGGGLVQAGGSLRLSCAASGFTFRVNAMGWYRQAPGKERELVAAISSGGSTNYADSVKGRFTISRDNAKNTVYLQMNSLNPEDNAVYYCAKRFKYIYYWGQGTQVTVSS` ? high polyreactivity

What do you get for `QVQLVESGGGLVQAGGSLRLSCAASGFTFPFYTMGWYRQAPGKERELVAAITFSGDSTYYADSVKGRFTISRDNAKNTVYLQMNSLKPEDTAVYYCAVASYWGPEYDYWGQGTQVTVSS` ? low polyreactivity
